Taken from ChEMBL document CHEMBL2331343.

subjectOfTest: 5-hydroxytryptamine receptor 2A (Homo sapiens)
Sequence (P28223 whole entry): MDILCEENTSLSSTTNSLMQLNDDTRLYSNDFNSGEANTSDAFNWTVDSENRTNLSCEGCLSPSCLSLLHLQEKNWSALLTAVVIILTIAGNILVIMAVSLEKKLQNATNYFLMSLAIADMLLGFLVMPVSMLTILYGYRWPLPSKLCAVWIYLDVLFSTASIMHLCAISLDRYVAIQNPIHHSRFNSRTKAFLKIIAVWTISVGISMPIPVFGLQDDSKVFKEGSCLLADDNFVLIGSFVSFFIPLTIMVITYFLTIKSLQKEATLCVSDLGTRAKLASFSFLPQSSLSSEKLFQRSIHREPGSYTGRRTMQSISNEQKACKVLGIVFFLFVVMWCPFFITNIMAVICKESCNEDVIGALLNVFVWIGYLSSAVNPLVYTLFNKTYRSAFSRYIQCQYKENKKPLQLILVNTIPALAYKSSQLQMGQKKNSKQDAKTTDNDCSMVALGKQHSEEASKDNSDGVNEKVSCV
protocolText: Inhibition of [3H]Ketanserin binding to 5-HT2A receptor (unknown origin) expressed in HEK293 cells at 10 uM by liquid scintillation counter relative to control
Format: cell-based
// label 0 strictly below 40% in inhibition; label 1 otherwise

Enquiry: Check the entry COc1cc2c(cc1O)[C@@H]1Cc3ccc(OC)c(O)c3CN1CC2 : does inhibition equal or exceed 40%?
Return: label 0

Enquiry: Check the entry COc1cc2c(cc1OC)[C@H]1Cc3ccc(OC)c(O)c3CN1CC2 : does inhibition equal or exceed 40%?
Return: label 0

Enquiry: Check the entry COc1cc2c(cc1O)[C@H]1Cc3ccc(OC)c(O)c3CN1CC2 : does inhibition equal or exceed 40%?
Return: label 0

Enquiry: Check the entry COc1cc2c(cc1O)CCN1Cc3c(ccc(OC)c3O)C[C@H]21 : does inhibition equal or exceed 40%?
Return: label 0

Enquiry: Check the entry COc1ccc2c(c1OC)CN1CCc3cc4c(cc3[C@@H]1C2)OCO4 : does inhibition equal or exceed 40%?
Return: label 1

Enquiry: Check the entry COc1ccc2c(c1O)CN1CCc3cc4c(cc3[C@@H]1C2)OCO4 : does inhibition equal or exceed 40%?
Return: label 1

Enquiry: Check the entry COc1cc2c(cc1O)[C@@H]1Cc3cc4c(cc3CN1CC2)OCO4 : does inhibition equal or exceed 40%?
Return: label 1

Enquiry: Check the entry COc1cc2c(cc1OC)[C@@H]1Cc3ccc(OC)c(OC)c3CN1CC2 [TETRAHYDROPALMATINE] : does inhibition equal or exceed 40%?
Return: label 0

Enquiry: Check the entry COc1cc2c(cc1OC)[C@H]1Cc3ccc(O)c(OC)c3CN1CC2 : does inhibition equal or exceed 40%?
Return: label 0

Enquiry: Check the entry COc1ccc2c(c1O)CN1CCc3cc4c(cc3[C@H]1C2)OCO4 : does inhibition equal or exceed 40%?
Return: label 0
